Listed next: entries and their corresponding max response.
# System: CRL-7250
# test method notes: Cytotoxic Profiling of Annotated Libraries Using Quantitative High-Throughput Screening (AID 1296008); note: nearly all actives have a fitted effect of over 60% in size; for max response: % is set by controls: 0 for no effect and ±100 for the full control effect
# test parameters: Five cell lines viability, CellTiter-Glo ATP luminescence, 48-72 h; stronger effect = lower value
Records with an inconclusive call do not appear.
measured endpoint: max response (%)

compound	target desc	units text	observed result
O=C(OC1C=C(CO)C2C(OC3OC(CO)C(O)C(O)C3O)OC=CC12O)c1ccc(O)cc1 (stereo not drawn)	CRL-7250	%	4.89
C=C1C(O)C(O)C2(CC3C(C)=CCC4C(C)(C(=O)O)CCCC34C)OC2C1O (stereo not drawn)	CRL-7250	%	-4.59
C[C@@]12CC3(S(=O)(=O)O)OC(O1)[C@]1(COC(=O)c4ccccc4)[C@H]3C[C@]21O[C@@H]1O[C@H](CO)[C@@H](O)[C@H](O)[C@H]1O	CRL-7250	%	2.31
COc1ccc2[nH]c(S(=O)Cc3ncc(C)c(OC)c3C)nc2c1 (stereo not drawn)	CRL-7250	%	-15.2
CC(C)=CCC/C(C)=C/CO[C@@H]1O[C@H](CO[C@@H]2O[C@@H](CO)[C@H](O)[C@H]2O)[C@@H](O)[C@H](O)[C@H]1O	CRL-7250	%	-10.8
CCCO[C@@H]1O[C@H](CO)[C@@H](O)[C@H](O)[C@H]1O[C@@H]1OC[C@@H](O)[C@H](O)[C@H]1O	CRL-7250	%	1.31
Cc1ccc2[nH]c(=O)c(C3=NN(C(=O)CCC(=O)O)C(c4ccc(Br)cc4)C3)c(-c3ccccc3)c2c1 (stereo not drawn)	CRL-7250	%	0.735
OC[C@@]1(O)CO[C@@H](OC[C@H]2O[C@@H](OCc3ccccc3)[C@H](O)[C@@H](O)[C@@H]2O)[C@@H]1O	CRL-7250	%	1.98

----------
# test method notes: Primary redox qHTS assay for identification of artifact compounds. (AID 1845223);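 note: 0% = DMSO and 100% = reference compound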
# test parameters: Amplex Red/HRP redox cycling with DTT, fluorescence; series mostly up to 53.8 µM
Results filed as inconclusive are left out. Calls of active or inactive are those of the source. Calls follow the shape of the dose curve; as a rule, active = well fitted activation curve with a large enough effect; inconclusive = small, poorly fitted or top-dose-only effect; inactive = flat fitted curve, though single readings scatter.

compound	redox activity (% of DA3003)
CN1C(=O)N(c2cc(Cl)cc(Cl)c2)C(=O)[C@@]1(C)Cc1ccc(Br)cc1	inactive
C[C@@H]1O[C@@H](O[C@@H]2[C@@H](O)[C@H](O[C@H]3[C@H](O[C@H]4CC[C@@]5(C)C(CC[C@]6(C)C5CC=C5[C@@H]7CC(C)(C)CC[C@]7(C(=O)O[C@@H]7O[C@H](CO)[C@@H](O)[C@H](O)[C@H]7O)CC[C@]56C)C4(C)C)O[C@H](C(=O)O)[C@@H](O)[C@@H]3O)OC[C@H]2O)[C@H](O)[C@H](O)[C@H]1O (stereo partly drawn)	-4.9% [at 11.5 µM] (inactive)
CC1CCC2(C(=O)OC3OC(CO)C(O)C(O)C3O)CCC3(C)C(=CCC4C5(C)CCC(O)C(C)(CO)C5CCC43C)C2C1(C)O (stereo not drawn)	inactive

----------
# Tested on: OV90
# test method notes: Primary qHTS to identify gynecologic anti-cancer compounds using libraries of approved drugs and bioactive compounds (AID 1345084); note: % is set by controls: 0 for no effect and ±100 for the full control effect; nearly all actives have a fitted effect of over 55% in size
# test parameters: Gynecologic cancer cell panel viability, ATPlite luminescence, 48 h; series mostly up to 57.5 µM
Records with an inconclusive call do not appear. Active and inactive are the calls of the source. Calls follow the shape of the dose curve; as a rule, active = well fitted cell-killing curve with a large enough effect; inconclusive = small, poorly fitted or top-dose-only effect, or effect the other way; inactive = flat fitted curve, though single readings scatter.

molecule	activity change, negative = cytotoxicity
CC1C2=CC(=O)OC2(O)CC2C1C(O)CC1C(C)(CO)CCCC21C (centres undefined)	inactive
CC(=O)O[C@H]1C[C@@]2(C)[C@@H](CC[C@H]3[C@@]4(C)C=CC(=O)[C@@H](C)[C@@H]4[C@H](OC(C)=O)C(=O)[C@@]32C)/C1=C(\CCC=C(C)C)C(=O)O	inactive
CC1(CO)CC(O)C2(C)CCC3(C)C(=CCC4C5(C=O)CCC(OC6OC(C(=O)O)C(O)C(O)C6OC6OC(C(=O)O)C(O)C(O)C6O)C(C)(C)C5CCC43C)C2C1 (centres undefined)	0.842% [at 11.6 µM] (inactive)
CC(O)C1CCC2C3CCC4CC(OC5OC(C(=O)O)C(O)C(O)C5O)CCC4(C)C3CCC12C (centres undefined)	inactive

----------
# System: NIH3T3
# test method notes: Cytotoxic Profiling of Annotated Libraries Using Quantitative High-Throughput Screening (AID 1296008); note: nearly all actives have a fitted effect of over 60% in size
# test parameters: Five cell lines viability, CellTiter-Glo ATP luminescence, 48-72 h
Results filed as inconclusive are left out. Calls of active or inactive are those of the source. Calls come from the whole dose curve; as a rule, active = well fitted inhibition curve with a large enough effect; inconclusive = small, poorly fitted or top-dose-only effect; inactive = flat fitted curve, though single readings scatter.

molecule	outcome
CC1(C)CC[C@]2(C(=O)O[C@@H]3O[C@H](CO)[C@@H](O)[C@H](O)[C@H]3O)CC[C@]3(C)C(=CCC4[C@@]5(C)CC[C@H](OC6OC(C(=O)O)C(OC7OC(CO)C(O)C(O)C7O)C(O)C6O)C(C)(C)C5CC[C@]43C)C2C1 (some centres not stated)	inactive
COc1ccc(S(=O)(=O)Nc2nc(-c3cccc([N+](=O)[O-])c3)cs2)cc1OC	inactive
CC1CC2OCC3(O)CCC(O)C(C14CC(c1ccoc1)OC4=O)C23CO (configuration not stated)	inactive
C[C@H]1[C@H](C)CC[C@]2(C(=O)O)CC[C@]3(C)C(=CCC4[C@@]5(C)C[C@@H](O)[C@H](O)C(C)(C)C5CC[C@]43C)[C@H]12 (some centres not stated)	inactive
COc1ccc(-n2c(=O)[nH]c3cc(C(=O)NCc4ccc(Cl)cc4)sc3c2=O)nc1OC	inactive
COc1cc(C(=O)OC[C@H]2O[C@@H](OC(C)(C)C(=O)O)[C@H](O)[C@@H](O)[C@@H]2O)cc(OC)c1O	inactive
COC(=O)c1ccccc1O[C@@H]1O[C@H](CO[C@@H]2OC[C@@H](O)[C@H](O)[C@H]2O)[C@@H](O)[C@H](O)[C@H]1O	inactive

----------
Here, each record is paired with measured max response data.
# System: CRL-7250
# test method notes: Cytotoxic Profiling of Annotated Libraries Using Quantitative High-Throughput Screening (AID 1296008); note: nearly all actives have a fitted effect of over 60% in size; for max response: % is set by controls: 0 for no effect and ±100 for the full control effect
# test parameters: Five cell lines viability, CellTiter-Glo ATP luminescence, 48-72 h; stronger effect = lower value
Results filed as inconclusive are left out. Where a SMILES comes first, the peptide text is derived from it. The star is where a group is joined. PhAc = O=C(Cc1ccccc1)*

compound	max response / %
CCC1=C(C)C(=O)C(C)CC12C(=O)CCC2C(=O)O (stereo not given)	-4.23
C=C(C)[C@@H]1CC[C@]2(CO)CC[C@]3(C)[C@H](CC[C@@H]4[C@@]5(C)CC[C@H](O)C(C)(C)[C@@H]5CC[C@]43C)[C@@H]12	1.98
COc1cc(C2Oc3c(OC)cc(/C=C/C(=O)OC4CC(O)(C(=O)O)CC(O)C4O)cc3C2CO)ccc1O (stereo not given)	-7.61
CCCC(C(=O)O)c1c(C)nc2ccc(Cl)cc2c1-c1ccccc1 (stereo not given)	3.26
CC(=O)O[C@@H]1CC2C(C)(C)C(=O)C=C[C@]2(C)C2CC[C@]3(C)C(=CC(=O)[C@@H]3c3ccoc3)[C@@]21C (stereo not given in full)	0.62
O=C(C1OC1/C=C/c1ccc2c(c1)OCO2)N1CCCCC1 (stereo not given)	3.99
Cc1ccc2nc(NC(=O)CSc3nc4c(c(=O)n3-c3ccc(F)cc3)SCC4)sc2c1	-14.2
COc1cccc(C)c1C(=O)O[C@@H]1C[C@H](O[C@H]2[C@H](O)C[C@H](O[C@@H]3CCC[C@H]4[C@H]3C=C[C@@H]3CCCC/C=C/[C@H]5C=C(C(=O)O)[C@@H](C)C[C@@]56OC(=O)C(=C6O)OC(=O)[C@@]34C)O[C@@H]2C)O[C@H](C)[C@H]1O	-2.06
C=C1C(OC(C)=O)CCC2(C)CCC(C(C)(C)O)CC12 (stereo not given)	-5.46
OC[C@H]1O[C@@H](O[C@H]2[C@H](O)[C@@H](CO)O[C@@H](OCc3ccccc3)[C@@H]2O[C@@H]2OC[C@](O)(CO)[C@H]2O)[C@H](O)[C@@H](O)[C@@H]1O	-8.44
CCOC(=O)CNC(=O)[C@@H]1CCCN1C(=O)Cc1ccccc1 (PhAc-Pro-Gly-OEt)	-0.853
COc1cc(CO)ccc1O[C@@H]1O[C@H](CO)[C@@H](O)[C@H](O)[C@H]1O	-0.424
COC(=O)C1=CO[C@@H](O[C@@H]2O[C@H](CO)[C@@H](O)[C@H](O)[C@H]2O)[C@H]2[C@@H]1C=C[C@]21C=C([C@H](C)OC(=O)/C=C/c2ccc(O[C@@H]3O[C@H](CO)[C@@H](O)[C@H](O)[C@H]3O)cc2)C(=O)O1	-2.8
CC(=O)OC12CC(C)C(O)C1/C=C(/COC1OC(CO)C(O)C(O)C1O)CCC1C(/C=C(\C)C2=O)C1(C)C (stereo not given)	-1.86
O=C(O)c1cc(O[C@@H]2O[C@H](CO)[C@@H](O)[C@H](O)[C@H]2O)ccc1O	-1.11
O=C(Nc1ccn(Cc2c(F)cccc2C(F)(F)F)n1)c1c(F)cccc1F	-12.9
COc1cc(/C=C/c2ccccc2)c(C(=O)O)c(O)c1CC=C(C)C	-4.97
NCCCCN(Cc1nc2ccccc2[nH]1)[C@H]1CCCc2cccnc21	-5.02
O=[N+]([O-])c1cc(Cl)ccc1S(=O)(=O)N1CCN(Cc2ccccc2)CC1	-3.5
C[C@]1(OC(=O)/C=C/c2ccccc2)C[C@@H](O)[C@]2(O)C=CO[C@@H](O[C@@H]3O[C@H](CO)[C@@H](O)[C@H](O)[C@H]3O)[C@@H]21	-4.65
CC1(C)CC[C@]2(C(=O)OC3OC(CO)C(O)C(O)C3O)CC[C@]3(C)C(=CCC4[C@@]5(C)C[C@@H](O)[C@H](OC6OC(C(=O)O)C(O)C(O)C6O)C(C)(C)C5CC[C@]43C)[C@@H]2C1 (stereo not given in full)	2.21
O=C(O)C(Cc1ccccc1)NC(=O)C1CCCN1 (stereo not drawn) (H-Pro-Phe-OH; configuration not given here)	-5.01
CC1(C)CCCC2(C)c3c4c(c(=O)oc(=O)c3=CCC12)=CCC1C(C)(C)CCCC41C (stereo not given)	-2.61
C=C1C(=O)O[C@@H]2C[C@]3(C)[C@@H](CCC(C)=O)[C@@H]3C[C@H]12	4.44
CC(C)c1cc2c(c(O)c1O)[C@@]13CCCC(C)(C)C1[C@@H](O)[C@@H]2OC3=O (stereo not given in full)	4.77
C[C@@H]1CC[C@]2(C(=O)O)CC[C@]3(C)C(=CCC4[C@@]5(C)C[C@@H](O)[C@H](O)[C@@](C)(CO)C5CC[C@]43C)C2[C@H]1C (stereo not given in full)	-10.8
CCCC1=CC2=C(CO1)C(=O)C(C)(O)C(OC(=O)c1c(C)cc(OC)cc1O)C2 (stereo not given)	-6.12
C=C1CC23CC1CCC2C12OC(=O)C(C)(C(O)C(O)C1O)C2C3C(=O)O (stereo not given)	-6.36
CSCC[C@H](NC(=O)[C@H](CO)NC(=O)[C@H](CCC(=O)O)NC(C)=O)C(=O)N[C@H](C=O)CC(=O)O (Ac-ESMD-aldehyde)	3.88
CC(=O)NC(Cc1ccccc1)C(=O)NC(C(=O)O)C(C)C (stereo not drawn) (Ac-Phe-Val-OH; configuration not given here)	-0.555

All values here come from PubChem BioAssay (NCATS).
